Documented Stability, Accuracy (RE, %) across a set of compounds
- Assay Text: Stability test of QC samples
- Assay type: physicochemical, rat
- Condition Info: Store at −20 °C for 20 days; low concentration QC sample in rat plasma
Measurement Type: Stability, Accuracy (RE, %)

smiles_entry=C[C@@H]1O[C@@H](OC[C@H]2O[C@@H](Oc3c(-c4ccc(O)c(O)c4)oc4cc(O)cc(O)c4c3=O)[C@H](O)[C@@H](O)[C@@H]2O)[C@H](O)[C@H](O)[C@H]1O measurement_type="Stability, Accuracy (RE, %)" result=7.31%
smiles_entry=O=C(/C=C/c1ccc(O)c(O)c1)O[C@H](Cc1ccc(O)c(O)c1)C(=O)O measurement_type="Stability, Accuracy (RE, %)" result=1.19%
smiles_entry=O=C(/C=C/c1ccc(O)c(O)c1/C=C/c1ccc(O)c(O)c1)O[C@H](Cc1ccc(O)c(O)c1)C(=O)O measurement_type="Stability, Accuracy (RE, %)" result=7.09%
smiles_entry=O=C(O)[C@H](O)Cc1ccc(O)c(O)c1 measurement_type="Stability, Accuracy (RE, %)" result=6.50%

* * *

- Assay Text: Stability test of QC samples
- Assay type: physicochemical, rat
- Condition Info: Store at 4 °C for 24 h; high concentration QC sample in rat plasma
Measurement Type: Stability, Accuracy (RE, %)

compound="O=C(/C=C/c1ccc(O)c2oc(-c3ccc(O)c(O)c3)cc12)O[C@H](Cc1ccc(O)c(O)c1)C(=O)O [Salvianolic acid C]" measurement_type="Stability, Accuracy (RE, %)" result=7.30%
compound="O=C(O)[C@H](O)Cc1ccc(O)c(O)c1 [Danshensu]" measurement_type="Stability, Accuracy (RE, %)" result=6.29%
compound="O=C(O)/C=C/c1ccc(O)c(O)c1 [Caffeic acid]" measurement_type="Stability, Accuracy (RE, %)" result=2.95%
compound="O=C(/C=C/c1ccc(O)c(O)c1/C=C/c1ccc(O)c(O)c1)O[C@H](Cc1ccc(O)c(O)c1)C(=O)O [Salvianolic acid A]" measurement_type="Stability, Accuracy (RE, %)" result=−0.93%

* * *

- Assay Text: Stability test of QC samples
- Type: physicochemical, rat
- Condition Info: Store at room temperature for 12 h; high concentration QC sample in rat plasma
Each entry below carries its recorded Stability, Accuracy (RE, %).
Measurement Type: Stability, Accuracy (RE, %)

compound="O=C(/C=C/c1ccc(O)c(O)c1/C=C/c1ccc(O)c(O)c1)O[C@H](Cc1ccc(O)c(O)c1)C(=O)O [Salvianolic acid A]" measurement_type="Stability, Accuracy (RE, %)" number=3.31
compound="O=C(/C=C/c1ccc(O)c(O)c1)O[C@H](Cc1ccc(O)c(O)c1)C(=O)O [Rosmarinic acid]" measurement_type="Stability, Accuracy (RE, %)" number=−10.92
compound="O=C(/C=C/c1ccc(O)c2oc(-c3ccc(O)c(O)c3)cc12)O[C@H](Cc1ccc(O)c(O)c1)C(=O)O [Salvianolic acid C]" measurement_type="Stability, Accuracy (RE, %)" number=−13.32
compound="O=C(O)/C=C/c1ccc(O)c(O)c1 [Caffeic acid]" measurement_type="Stability, Accuracy (RE, %)" number=5.38
compound="O=C(/C=C/c1ccc(O)c2c1[C@H](C(=O)O)[C@@H](c1ccc(O)c(O)c1)O2)O[C@H](Cc1ccc(O)c(O)c1)C(=O)O [Lithospermic acid]" measurement_type="Stability, Accuracy (RE, %)" number=11.92
compound="O=C(O)[C@H](O)Cc1ccc(O)c(O)c1 [Danshensu]" measurement_type="Stability, Accuracy (RE, %)" number=9.76
compound="C[C@@H]1O[C@@H](OC[C@H]2O[C@@H](Oc3c(-c4ccc(O)c(O)c4)oc4cc(O)cc(O)c4c3=O)[C@H](O)[C@@H](O)[C@@H]2O)[C@H](O)[C@H](O)[C@H]1O [Rutin]" measurement_type="Stability, Accuracy (RE, %)" number=11.51
